experiment: chemical genetic growth profiling, strain panel (AID 1159580);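 also: tested at 20 µM; growth read once vehicle control cultures reached saturation at 30 °C; 1 = growth at the plate median or of vehicle wells; lower values mean less growth of the strain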; details: S. cerevisiae deletion strains, growth OD, locus YHR200W, strain rpn10
Hit rate of the full screen: of about 5,500 compounds, about 2,000 (36%) were called active. Another 18% or so got no clear call; they are omitted. Rule as the data show it: active = normalized growth mostly below about 0.91 (no sharp cut-off); inconclusive = no clear call, values can overlap the other calls; inactive = mostly above about 0.92. The list shows a part of the results.
Give one outcome, nothing more. List: 1.0 (active), 0.0 (inactive)

// outcome(item) with item = CC(=O)OC(C)C[N+](C)(C)C (configuration not stated)
0.0

// outcome(item) with item = CCCCCCCCCCCC1=C(O)C(=O)C=C(O)C1=O
1.0

// outcome(item) with item = Cc1cc(C2CCCCC2)n(O)c(=O)c1
1.0

// outcome(item) with item = CCC1OC(=O)[C@H](C)C(=O)[C@H](C)[C@@H](OC2O[C@H](C)C[C@H](N(C)C)[C@H]2O)[C@](C)(OC)C2(CCCn3cnc(-c4cccnc4)c3)C[C@@H](C)C(=O)[C@H](C)[C@H]3N(C2)C(=O)O[C@]13C (some centres not stated)
0.0

// outcome(item) with item = COc1ccc2c(c1)CCC1C2CCC2(C)C1C[C@@H](O)C2O (some centres not stated)
0.0

// outcome(item) with item = CC(C)c1c(O)ccc2c1CCC1C(C)(C)CCC[C@]21C (some centres not stated)
1.0

// outcome(item) with item = O=C1C=C2C(=CCOC2O)O1 (configuration not stated)
1.0

// outcome(item) with item = CCCCOc1cc(C(=O)NCCN(CC)CC)c2ccccc2n1
0.0

// outcome(item) with item = C[C@]12CCC3c4ccc(OS(=O)(=O)O)cc4CCC3C1CC[C@H]2O (some centres not stated)
0.0

// outcome(item) with item = COc1ccc(Cl)cc1C(=O)NCCc1ccc(S(=O)(=O)NC(=O)NC2CCCCC2)cc1
0.0

// outcome(item) with item = NC(CSCSCC(N)C(=O)O)C(=O)O (configuration not stated)
0.0

// outcome(item) with item = CC(=O)Oc1ccc2c(c1OC(C)=O)OCC1(O)Cc3c(cc(OC(C)=O)c(OC(C)=O)c3OC(C)=O)C21 (configuration not stated)
0.0

// outcome(item) with item = COc1ccc2c3c1OC1C(O)CC=C4C(C2)N(C)CCC431 (configuration not stated)
0.0

// outcome(item) with item = CN(C)c1nc(N)c(C(=O)N=C(N)N)nc1Cl
0.0

// outcome(item) with item = COc1ccc2c(c1C(C)C)CCC1C(C)(C)C(=O)CCC21C (configuration not stated)
0.0

// outcome(item) with item = NC(N)=NC(=O)c1nc(Cl)c(N2CCCCCC2)nc1N
0.0

// outcome(item) with item = C[N+](C)(C)CC(O)CC(=O)O (configuration not stated)
0.0

// outcome(item) with item = C[C@@H]([C@H](O)c1ccccc1)N(C)C
0.0

// outcome(item) with item = NS(=O)(=O)c1cc(C2(O)NC(=O)c3ccccc32)ccc1Cl (configuration not stated)
0.0

// outcome(item) with item = COc1ccc2c(c1)CCC1C2CC[C@@]2(C)C1CC[C@@H]2O (some centres not stated)
1.0

// outcome(item) with item = CCCCCCCCCCCCCCCCCC(=O)OC(CC(=O)O)C[N+](C)(C)C (configuration not stated)
1.0

// outcome(item) with item = CC12CCC3c4ccc(OCc5ccccc5)cc4CCC3C1C[C@@H](O)[C@@H]2O (some centres not stated)
1.0
